Kd listing for selected compounds.
# System Name: FGFR3 (Homo sapiens)
# Construct: made in house; host or cells: E. coli (BL21-derived) infected with T7 phage
# Sequence (P22607 23-806): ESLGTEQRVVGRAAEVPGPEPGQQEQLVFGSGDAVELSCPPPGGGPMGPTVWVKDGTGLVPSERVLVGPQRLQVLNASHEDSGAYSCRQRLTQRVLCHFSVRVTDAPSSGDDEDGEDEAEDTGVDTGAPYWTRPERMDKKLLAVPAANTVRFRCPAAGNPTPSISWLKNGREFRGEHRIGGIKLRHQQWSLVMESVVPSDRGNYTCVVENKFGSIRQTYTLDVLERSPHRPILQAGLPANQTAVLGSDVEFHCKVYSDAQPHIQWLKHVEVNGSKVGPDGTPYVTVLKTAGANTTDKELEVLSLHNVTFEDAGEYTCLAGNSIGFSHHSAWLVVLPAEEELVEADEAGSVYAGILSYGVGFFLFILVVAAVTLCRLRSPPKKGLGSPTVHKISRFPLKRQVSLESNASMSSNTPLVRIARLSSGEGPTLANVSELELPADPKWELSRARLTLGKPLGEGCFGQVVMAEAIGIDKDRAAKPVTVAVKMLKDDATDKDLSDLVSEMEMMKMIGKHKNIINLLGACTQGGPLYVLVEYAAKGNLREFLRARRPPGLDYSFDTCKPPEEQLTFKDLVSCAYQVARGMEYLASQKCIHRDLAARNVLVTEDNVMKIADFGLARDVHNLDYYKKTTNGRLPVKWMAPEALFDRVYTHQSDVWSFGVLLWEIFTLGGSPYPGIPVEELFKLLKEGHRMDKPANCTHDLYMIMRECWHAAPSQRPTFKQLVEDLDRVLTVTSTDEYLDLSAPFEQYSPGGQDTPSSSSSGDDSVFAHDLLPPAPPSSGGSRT
# Assay Remarks: Kinase binding assay (Kd), kinase-tagged T7 phage, affinity beads, qPCR
# Details: in vitro binding assay, 11-point 3-fold dilution series

Take a look at these entries with their results.
CCC(=O)N1CCC2(CC1)CC(n1cc(-c3cc(O[C@H](CO)c4ccc(F)cn4)c4c(C#N)cnn4c3)cn1)C2; 0.1 to 100 nM
COC1(C(=O)N2CCC(n3nnc(-c4cc(OC(CO)c5ccccn5)c5c(C#N)cnn5c4)c3C)CC2)CN(C(=O)/C=C/CN(C)C)C1 (centres unmarked); 0.1 to 100 nM
C=CC(=O)N1CCC2(CC1)CC(n1nnc(-c3cc(O[C@@H](CO)c4ccc(F)cn4)c4c(C#N)cnn4c3)c1C)C2; 100 to 250 nM
C=CC(=O)N1CCC2(CC1)CC(n1ncc(-c3cc(O[C@H](CO)c4ccc(F)cn4)c4c(C#N)cnn4c3)c1C)C2; 0.1 to 100 nM

Reported Kd of CCC(=O)N1CCC2(CC1)CC(n1cc(-c3cc(O[C@@H](CO)c4ccc(F)cn4)c4c(C#N)cnn4c3)cn1)C2 : 100 to 250 nM

Reported Kd of C=CC(=O)N1CCC(n2ncc(-c3cc(O[C@@H](CO)c4ccc(F)cn4)c4c(C#N)cnn4c3)c2C)CC1 : 250 to 1000 nM

Reported Kd of CCC(=O)N1CC(C(=O)N2CCC(n3nnc(-c4cc(OC(CO)c5ccccn5)c5c(C#N)cnn5c4)c3C)CC2)C1 (centres unmarked) : 0.1 to 100 nM

Reported Kd of C=CC(=O)N1CCC2(CC1)CC(n1ncc(-c3cc(O[C@@H](CO)c4ccc(F)cn4)c4c(C#N)cnn4c3)c1C)C2 : 250 to 1000 nM

---

# System Name: Ba/F3 FGFR3-BAIAP2L1 (Homo sapiens, UniProt P22607)
# Construct: BAIAP2L1 (fusion partner, Q9UHR4 if human); host or cells: Ba/F3; the other entry of the earlier key: BAIAP2L1 (Q9UHR4, BAR/IMD domain-containing adapter protein 2-like 1)
# Assay Remarks: Ba/F3 cell viability assay (CellTiter-Glo 2.0)
# Format: cell-based
# Details: Ba/F3 cell data, FGFR3-BAIAP2L1 fusion, 48 hours
Reported Endpoint: Kd

Take a look at these entries with their results.
C=CC(=O)N1CC(OC)(C(=O)N2CCC(n3nnc(-c4cc(O[C@H](CO)c5ccccn5)c5c(C#N)cnn5c4)c3C)CC2)C1; 0.1 to 100 nM
C=CC(=O)N1CCC2(CC1)CC(n1ncc(-c3cc(OC(CO)c4cncc5ccccc45)c4c(C#N)cnn4c3)c1C)C2 (stereo not shown); 0.1 to 100 nM
C=CC(=O)N1CCC2(CC1)CC(n1ncc(-c3cc(O[C@H](CO)c4ccc(F)cn4)c4c(C#N)cnn4c3)c1C)C2; 0.1 to 100 nM

Reported Kd of C=CC(=O)N1CCC2(CC1)CC(n1nnc(-c3cc(O[C@H](C)c4ccccn4)c4c(Cl)cnn4c3)c1C)C2 : 0.1 to 100 nM

---

# System Name: FGFR4 (Homo sapiens)
# Construct: made in house; host or cells: E. coli (BL21-derived) infected with T7 phage
# Sequence (P22455 22-802): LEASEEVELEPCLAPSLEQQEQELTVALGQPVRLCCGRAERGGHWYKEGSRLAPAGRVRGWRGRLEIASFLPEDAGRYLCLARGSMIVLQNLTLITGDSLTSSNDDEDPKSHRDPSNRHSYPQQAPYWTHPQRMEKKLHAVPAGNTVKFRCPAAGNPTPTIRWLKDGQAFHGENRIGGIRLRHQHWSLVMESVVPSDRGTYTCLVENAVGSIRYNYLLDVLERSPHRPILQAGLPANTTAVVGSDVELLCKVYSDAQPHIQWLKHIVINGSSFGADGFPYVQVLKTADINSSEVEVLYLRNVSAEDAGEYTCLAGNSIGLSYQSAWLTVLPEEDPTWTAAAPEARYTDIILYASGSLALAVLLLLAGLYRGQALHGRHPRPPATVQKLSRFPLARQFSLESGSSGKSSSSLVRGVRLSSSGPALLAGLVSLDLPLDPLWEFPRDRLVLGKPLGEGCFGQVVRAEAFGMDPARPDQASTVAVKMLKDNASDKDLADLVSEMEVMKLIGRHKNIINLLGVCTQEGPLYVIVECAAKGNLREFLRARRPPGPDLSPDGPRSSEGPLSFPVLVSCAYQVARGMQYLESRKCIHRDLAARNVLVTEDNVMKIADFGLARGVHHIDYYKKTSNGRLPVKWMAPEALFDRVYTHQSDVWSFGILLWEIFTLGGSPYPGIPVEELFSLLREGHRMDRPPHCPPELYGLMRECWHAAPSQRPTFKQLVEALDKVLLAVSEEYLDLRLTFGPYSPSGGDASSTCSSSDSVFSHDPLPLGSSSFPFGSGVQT
# Assay Remarks: Kinase binding assay (Kd), kinase-tagged T7 phage, affinity beads, qPCR
# Details: in vitro binding assay, 11-point 3-fold dilution series
Kd listing for selected compounds.

C=CC(=O)N1CCC2(CC1)CC(n1cc(-c3cc(O[C@@H](CO)c4ccc(F)cn4)c4c(C#N)cnn4c3)cn1)C2; 250 to 1000 nM
C=CC(=O)N1CCC2(CC1)CC(n1ncc(-c3cc(OC(CO)c4ccn(C)n4)c4c(C#N)cnn4c3)c1C)C2 (centres unmarked); 100 to 250 nM
C#CC(=O)N1CC(OC)(C(=O)N2CCC(n3nnc(-c4cc(OC(CO)c5ccccn5)c5c(C#N)cnn5c4)c3C)CC2)C1 (centres unmarked); 0.1 to 100 nM
C=CC(=O)N1CCC2(CC1)CC(n1nnc(-c3cc(O[C@H](CO)c4ccc(F)cn4)c4c(C#N)cnn4c3)c1C)C2; 0.1 to 100 nM
CCC(=O)N1CC(C(=O)N2CCC(n3nnc(-c4cc(OC(CO)c5ccccn5)c5c(C#N)cnn5c4)c3C)CC2)C1 (centres unmarked); 0.1 to 100 nM
CCC(=O)N1CCC2(CC1)CC(n1cc(-c3cc(O[C@@H](CO)c4ccc(F)cn4)c4c(C#N)cnn4c3)cn1)C2; 250 to 1000 nM

Reported Kd of C=CC(=O)N1CCC2(CC1)CC(n1ncc(-c3cc(OC(CO)c4ccnn4C)c4c(C#N)cnn4c3)c1C)C2 (centres unmarked) : 250 to 1000 nM

Reported Kd of CCC(=O)N1CCC2(CC1)CC(n1cc(-c3cc(O[C@H](CO)c4ccc(F)cn4)c4c(C#N)cnn4c3)cn1)C2 : 0.1 to 100 nM

Reported Kd of C=CC(=O)N1CCC2(CC1)CC(n1ncc(-c3cc(OC(CO)c4cncc5ccccc45)c4c(C#N)cnn4c3)c1C)C2 (centres unmarked) : 0.1 to 100 nM

Reported Kd of C=CC(=O)N1CC(OC)(C(=O)N2CCC(n3nnc(-c4cc(O[C@H](CO)c5ccccn5)c5c(C#N)cnn5c4)c3C)CC2)C1 : 0.1 to 100 nM

Reported Kd of COC1(C(=O)N2CCC(n3nnc(-c4cc(OC(CO)c5ccccn5)c5c(C#N)cnn5c4)c3C)CC2)CN(C(=O)/C=C/CN(C)C)C1 (centres unmarked) : 0.1 to 100 nM
